system: HepG2 cells; assay: Growth inhibition, MTS assay, HepG2; assay type: cell-based, Human; conditions: 72 hours, MTS cell viability; read-out: HepG2 ED50
Assign log10 IC50 to each entry below.
Form field - Quantity: IC50; Unit: nM; Scale: log10

Recorded log10 IC50, per entry:
[[record]]
compound = "CC(C)n1c(N2CC[C@H](N)C2)nc2c([N+](=O)[O-])c(Br)c(Br)cc21 [Example 1AZ]"
assay_target = "HepG2 cells"
value_measured = 3.34

[[record]]
compound = "CC(C)n1c(N[C@@H]2CCCNC2)nc2c([N+](=O)[O-])c(Br)c(Br)cc21 [Example 1AS]"
assay_target = "HepG2 cells"
value_measured = 3.15

[[record]]
compound = "COCCn1c(N2CCNCC2)nc2c([N+](=O)[O-])c(Br)c(Br)cc21 [Example 1BB]"
assay_target = "HepG2 cells"
value_measured = 3.30

[[record]]
compound = "CCn1c(N2CCC[C@H](N)C2)nc2c([N+](=O)[O-])c(Cl)c(Cl)cc21 [Example 1CT]"
assay_target = "HepG2 cells"
value_measured = 3.78

[[record]]
compound = "CCCn1c(N2CCNCC2)nc2c([N+](=O)[O-])c(Br)c(Br)cc21 [Example 1M]"
assay_target = "HepG2 cells"
value_measured = 3.26

[[record]]
compound = "NCCCNc1nc2c([N+](=O)[O-])c(Br)c(Br)cc2n1CC1CC1 [Example 1AB]"
assay_target = "HepG2 cells"
value_measured = 3.36

[[record]]
compound = "CCCn1c(N2CC[C@@H](N)C2)nc2c([N+](=O)[O-])c(Br)c(Br)cc21 [Example 1CM]"
assay_target = "HepG2 cells"
value_measured = 3.41

[[record]]
compound = "CCn1c(NC2CCC(N)CC2)nc2c([N+](=O)[O-])c(Br)c(Br)cc21 (stereo not drawn) [Example 1DU]"
assay_target = "HepG2 cells"
value_measured = 3.11


Below is a list of compounds. For each, state its recorded log10 IC50.
1. CC(C)n1c(N2CCC[C@H](N)C2)nc2c(C#N)c(Br)c(Br)cc21 [Example 1BV]
2. CCn1c(NC2CCC(N)CC2)nc2c([N+](=O)[O-])c(Br)c(Br)cc21 (stereo not drawn) [Example 1DO]

[3.46, 3.34]
